Each recorded value in this set is attributed to patent US11584743B2.

- PROTOCOL SUMMARY: Single dose subcutaneous pharmacokinetics in CD-1 mice
- Type: in vivo
- MEASUREMENT PARAMETERS: mouse, sc, 10 mg/kg single dose, plasma
ENDPOINT NAME: Cmax (ng/mL)

INSERT INTO results (compound, endpoint_name, unit_info, measured_number) VALUES
  ('Cc1ncsc1-c1ccc([C@H](C)NC(=O)[C@@H]2C[C@@H](O)CN2C(=O)[C@@H](NC(=O)COCCOCCOCCOc2ccc(Cn3c(-c4ccc(O)cc4)c(C)c4cc(O)ccc43)cc2)C(C)(C)C)cc1 [Example #5]', 'Cmax', 'ng/mL', 687);

====

- PROTOCOL SUMMARY: Single dose subcutaneous pharmacokinetics in CD-1 mice
- Type: in vivo
- MEASUREMENT PARAMETERS: mouse, sc, 10 mg/kg single dose, plasma
ENDPOINT NAME: Tmax (h)

INSERT INTO assay_data (smiles, measured_number) VALUES
  ('Cc1ncsc1-c1ccc([C@H](C)NC(=O)[C@@H]2C[C@@H](O)CN2C(=O)[C@@H](NC(=O)COCCOCCOCCOc2ccc(Cn3c(-c4ccc(O)cc4)c(C)c4cc(O)ccc43)cc2)C(C)(C)C)cc1', 4);

====

- PROTOCOL SUMMARY: Single dose subcutaneous pharmacokinetics in CD-1 mice
- Assay type: in vivo
- MEASUREMENT PARAMETERS: mouse, plasma, sc, 10 mg/kg single dose, read-out: F % (subcutaneous bioavailability)
ENDPOINT NAME: bioavailability (%)

INSERT INTO assay_data (smiles, unit_info, measured_number) VALUES
  ('Cc1ncsc1-c1ccc([C@H](C)NC(=O)[C@@H]2C[C@@H](O)CN2C(=O)[C@@H](NC(=O)COCCOCCOCCOc2ccc(Cn3c(-c4ccc(O)cc4)c(C)c4cc(O)ccc43)cc2)C(C)(C)C)cc1', '%', 100);

====

- PROTOCOL SUMMARY: Single dose subcutaneous pharmacokinetics in CD-1 mice
- Type: in vivo
- MEASUREMENT PARAMETERS: mouse, sc, 10 mg/kg single dose, plasma
ENDPOINT NAME: half-life (h)

INSERT INTO assay_data (smiles, measured_number) VALUES
  ('Cc1ncsc1-c1ccc([C@H](C)NC(=O)[C@@H]2C[C@@H](O)CN2C(=O)[C@@H](NC(=O)COCCOCCOCCOc2ccc(Cn3c(-c4ccc(O)cc4)c(C)c4cc(O)ccc43)cc2)C(C)(C)C)cc1', 12);
